Tested on: human embryonic lung fibroblast cell line MRC-5
Format: cell-based
Settings: normal fibroblasts; serum-free RPMI-1640 medium; 24 hours; maximum 200 μg/ml; read-out: IC50, MRC-5
Experimental: The cytotoxic effects of the peptides on different human tumour cells were measured using the MTT colorimetric assay (Mosmann, 1983). […] This water insoluble formazan can be solubilized using isopropanol or other solvents and the dissolved material is measured spectrophotometrically. The absorbance was measured as a function of concentration of converted dye. […] The cytotoxicity was measured using the MTT method (Mosmann, 1983), with minor modifications. […]
metricName: IC50 (µM)
Give the quantity in µM, number only.

Task: Requested field: IC50. Item: NC(Cc1c[nH]c2cc(Br)ccc12)C(=O)O [6-D/L-Br-Trp, 6-Bromo-D/L-tryptophan, reference compound]
Output: 584
